assay: ABTS•+ radical scavenging assay; conditions: mean ± SD of triplicates
Experimental endpoint: IC50 (µM)

Cc1c(C)c2c(c(C)c1O)CCC(C)(C(=O)O)O2 (centres unmarked) [Trolox, reference compound] | 18.4
Oc1cc(O)cc(Oc2c(O)cc(O)c3c2Oc2c(O)cc4oc5c(Oc6cc(O)cc(O)c6)c(O)cc(O)c5c4c2O3)c1 | 12.9
Oc1cc(O)cc(Oc2c(O)cc(O)c3c2oc2cc(O)c4c(c23)Oc2c(O)cc(O)c(Oc3cc(O)cc(O)c3-c3c(O)cc(O)cc3Oc3c(O)cc(O)cc3Oc3c(O)cc(O)cc3O)c2O4)c1 | 6.29
Oc1cc(O)cc(O)c1 | 31.5
Oc1cc(O)cc(Oc2c(O)cc(O)c3c2Oc2c(O)cc(O)cc2O3)c1 | 5.01
